test system: Escherichia coli ATCC 25922; assay: MIC, broth microdilution (CLSI), reference strain; details: CAMHB
Square brackets hold non-standard residues; d marks the D form. Peptide text beside a SMILES is read from it. * marks the point of attachment. Phe(4-Me) = Cc1ccc(C[C@H](N)C(=O)O)cc1; Dab(3S-OH) = NC[C@H](O)[C@H](N)C(=O)O; Met(O2) = CS(=O)(=O)CC[C@H](N)C(=O)O; ΔZArg = N=C(N)NCC/C=C(\N)C(=O)O; dOrn = NCCC[C@@H](N)C(=O)O; Orn = NCCC[C@H](N)C(=O)O; Dab = NCC[C@H](N)C(=O)O; NH(CH2)4NH2 = NCCCCN*
Value Type: Ec: MIC Escherichia coli ATCC 25922

INSERT INTO measurements (compound, value_type, measured) VALUES
  ('Cc1ccc(C[C@H](NC(=O)[C@@H]2CCCN2C(=O)[C@@H](CCCN)NC(=O)CNC(=O)[C@H](C)NC(=O)[C@@H](NC(=O)[C@@H](N)CCCCN)[C@@H](O)CN)C(=O)N[C@@H](CCCCN)C(=O)N/C(=C\CCNC(=N)N)C(=O)O)cc1 [24.104] (H-K[Dab(3S-OH)]AG[dOrn]P[Phe(4-Me)]K[ΔZArg]-OH)', 'Ec: MIC Escherichia coli ATCC 25922', '+ (≤32 μg/mL)'),
  ('C[C@H](NC(=O)[C@H](CCN)NC(=O)[C@@H](N)CCCN)C(=O)NCC(=O)N[C@H](CCCN)C(=O)N1CCC[C@H]1C(=O)N[C@@H](Cc1cnc[nH]1)C(=O)N[C@@H](CCCCN)C(=O)N/C(=C\CCNC(=N)N)C(=O)N[C@@H](CCCCN)C(=O)NCCCCN [14.16] (H-[Orn][Dab]AG[dOrn]PHK[ΔZArg]K-{NH(CH2)4NH2})', 'Ec: MIC Escherichia coli ATCC 25922', '− (>32 μg/mL)'),
  ('C[C@H](NC(=O)[C@@H](NC(=O)[C@@H](N)CCCCN)[C@@H](O)CN)C(=O)NCC(=O)N[C@H](CCCN)C(=O)N1CCC[C@H]1C(=O)N[C@@H](CCS(C)(=O)=O)C(=O)N[C@@H](CCCCN)C(=O)N/C(=C\CCNC(=N)N)C(=O)O [24.133] (H-K[Dab(3S-OH)]AG[dOrn]P[Met(O2)]K[ΔZArg]-OH)', 'Ec: MIC Escherichia coli ATCC 25922', '− (>32 μg/mL)'),
  ('CCOC(=O)[C@H](CCCCN)NC(=O)/C(=C/CCNC(=N)N)NC(=O)[C@H](CCCCN)NC(=O)[C@H](Cc1cnc[nH]1)NC(=O)[C@@H]1CCCN1C(=O)[C@@H](CCCN)NC(=O)CNC(=O)[C@@H](NC(=O)[C@@H](NC(=O)[C@@H](N)CCCCN)[C@@H](O)CN)[C@@H](O)CN [22.28] (H-K[Dab(3S-OH)][Dab(3S-OH)]G[dOrn]PHK[ΔZArg]K-OEt)', 'Ec: MIC Escherichia coli ATCC 25922', '+ (≤32 μg/mL)'),
  ('C[C@H](NC(=O)[C@H](CCN)NC(=O)[C@@H](N)CCCCN)C(=O)NCC(=O)N[C@H](CCCN)C(=O)N1CCC[C@H]1C(=O)N[C@@H](Cc1cnc[nH]1)C(=O)N[C@@H](CCCCN)C(=O)N/C(=C\CCNC(=N)N)C(=O)N[C@H](CCCCN)C(=O)NCCCCN [14.11] (H-K[Dab]AG[dOrn]PHK[ΔZArg][dK]-{NH(CH2)4NH2})', 'Ec: MIC Escherichia coli ATCC 25922', '− (>32 μg/mL)'),
  ('N=C(N)NCC/C=C(\NC(=O)[C@H](CCCCN)NC(=O)[C@H](Cc1cnc[nH]1)NC(=O)[C@@H]1CCCN1C(=O)[C@@H](CCCN)NC(=O)CNC(=O)[C@H](CO)NC(=O)[C@@H](NC(=O)[C@@H](N)CCCCN)[C@@H](O)CN)C(=O)O [26.2] (H-K[Dab(3S-OH)]SG[dOrn]PHK[ΔZArg]-OH)', 'Ec: MIC Escherichia coli ATCC 25922', '+ (≤32 μg/mL)');
